molecular target: plasma renin activity (PRA) (Homo sapiens); construct: pooled mixed-gender human plasma stabilized with EDTA; experiment: In vitro plasma renin activity (PRA) in human plasma, angiotensin I radioimmunoassay; details: IC50 in pooled human plasma, 37° C., 90 min
Sequence (P00797 67-406): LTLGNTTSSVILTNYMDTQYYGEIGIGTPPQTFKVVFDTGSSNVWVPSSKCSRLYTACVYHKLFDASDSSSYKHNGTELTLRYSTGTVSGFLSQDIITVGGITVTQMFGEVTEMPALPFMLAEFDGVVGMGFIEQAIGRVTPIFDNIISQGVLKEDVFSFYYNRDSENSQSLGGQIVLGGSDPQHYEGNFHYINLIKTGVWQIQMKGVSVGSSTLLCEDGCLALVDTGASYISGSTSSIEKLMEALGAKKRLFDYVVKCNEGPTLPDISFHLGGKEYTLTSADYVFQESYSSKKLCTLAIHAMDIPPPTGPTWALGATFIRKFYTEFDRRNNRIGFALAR
pIC50: −log10 of the molar value.
MEASUREMENT TYPE: pIC50

The cases that follow already have their pIC50 on record.
# MOLECULE, ENDPOINT RESULT
records = [
    ("CN[C@H](CNC(=O)N1CCC[C@@H]([C@H](OCCNC(=O)OC)c2cc(Cl)ccc2C)C1)C[C@H]1CCCOC1 [Compound 11]", "> 8.00"),
    ("CN[C@H](CNC(=O)N1CCC[C@@H]([C@@H](OCCNC(=O)OC)c2cc(F)cc(Cl)c2)C1)C[C@H]1CCCOC1 [Compound 9]", "> 8.00"),
]

Problem: Reported pIC50 for CN[C@H](CNC(=O)N1CCC[C@@H]([C@@H](OCCNC(=O)OC)c2cc(F)cc(F)c2)C1)C[C@H]1CCCOC1 [Compound 10] : what is it?
Result: > 8.00
